Data provenance: the Human Domainome abundance scans (Beltran et al. 2025)

B1: POU domain, class 3, transcription factor 4, residues 280 to 335; numbered along this chain, P49335 (parent)
chain: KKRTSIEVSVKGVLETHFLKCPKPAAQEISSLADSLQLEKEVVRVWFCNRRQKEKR

# Variants of: B1
# Assay name: abundance fitness (aPCA) (normalised: wild type 0, dead -1); higher = more abundant; growth selection in yeast, the domain comes from the species named
# Run parameters: Homo sapiens
Give measured abundance fitness for each item. Keep answers brief.

[Q] Entry Q52A has what abundance fitness?
[A] 0.203

[Q] Cool, now K40F
[A] 0.195

[Q] Can you handle E15C next?
[A] -0.947

[Q] Next variant: K23P
[A] -0.697

[Q] Then this variant: R3N
[A] 0.033

[Q] Likewise for F18E ?
[A] -0.851

[Q] Also V42M , if possible.
[A] -0.401

[Q] Same lookup for N49F , please.
[A] -0.574

[Q] Same lookup for K40A , please.
[A] 0.026

[Q] Another variant: H17V
[A] -0.017

[Q] What do you have for R50T ?
[A] -0.693
